B1: library; numbered along this chain (parent)
chain: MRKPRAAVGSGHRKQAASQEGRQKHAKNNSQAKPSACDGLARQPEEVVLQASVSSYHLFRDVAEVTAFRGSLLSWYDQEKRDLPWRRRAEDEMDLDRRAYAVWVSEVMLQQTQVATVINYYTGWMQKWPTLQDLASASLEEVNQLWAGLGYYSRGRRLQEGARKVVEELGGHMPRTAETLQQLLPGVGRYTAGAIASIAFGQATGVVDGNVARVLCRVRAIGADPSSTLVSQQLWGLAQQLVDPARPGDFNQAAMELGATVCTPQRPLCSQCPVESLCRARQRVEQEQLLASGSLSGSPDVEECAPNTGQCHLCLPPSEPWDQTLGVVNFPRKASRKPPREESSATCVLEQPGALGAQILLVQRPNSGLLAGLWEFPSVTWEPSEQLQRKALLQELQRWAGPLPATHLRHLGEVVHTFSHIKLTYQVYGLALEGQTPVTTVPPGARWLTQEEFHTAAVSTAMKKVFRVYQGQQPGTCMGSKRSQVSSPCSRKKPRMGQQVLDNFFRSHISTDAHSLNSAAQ

# Variants of: B1
# TEST_SUMMARY: 8OG:A repair function score (normalized; synonymous = 0, nonsense = -1) (normalized log-likelihood score); higher = more repair activity (WT-like);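 also: cells sorted at 72 h after reporter transfection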
# SETUP_CONDITIONS: with 8OG:A DNA repair reporter (GFP) in HEK-293 MUTYH KO cells
MEASURE_NAME: 8OG:A repair function score

Illustrative cases are given below, each with its answer.
mut=Q252H result=-0.873
mut=V218A result=-0.268
mut=S487W result=-0.00878

According to the records, this variant `F418C` displays 8OG:A repair function score of -0.171

According to the records, this variant `P320F` displays 8OG:A repair function score of -0.0659

According to the records, this variant `C216Q` displays 8OG:A repair function score of -0.579

According to the records, this variant `E168H` displays 8OG:A repair function score of -0.103

According to the records, this variant `V261F` displays 8OG:A repair function score of -0.278

According to the records, this variant `A334P` displays 8OG:A repair function score of -0.147

According to the records, this variant `A354W` displays 8OG:A repair function score of -0.0982
